Target: T1, chromodomain of CBX7 (human, UniProt O95931 8-62)
T1 sequence (looked up): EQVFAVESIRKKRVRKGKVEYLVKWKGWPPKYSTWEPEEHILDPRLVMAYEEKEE
Experiment: AlphaScreen or HTRF
pIC50: −log10 of the molar value. Ends that are not written are not given here. diethyl = not defined here
RESULT TYPE: pIC50

{4‑tBu‑Bz}-F(CH2NH2)ALK(diethyl)S-OMe (reading uncertain) [compound 47]	7.20

1: {4‑tBu‑Bz}-FALK(diethyl)S (reading uncertain; also: C-terminal carbonyl removed entirely (R3 = -H)) [compound 46]
2: {4‑tBu‑Bz}-FALK(diethyl)S-OH (reading uncertain) [compound 44]
Ask: Between 1 and 2 , which one has the lower reported pIC50 value? Choose, then provide that item's label.
Result: 2
(2: 6.89, 1: 7.12)
